Reference source for all entries: ChEMBL document CHEMBL5506015

Entries and their IC50 at 48 h
- test_summary: Cytotoxicity against human HIEC-6 cells assessed as reduction in cell viability incubated for 48 hrs by MTT assay
- Assay type: toxicity, cell-based
- assay_context: HIEC-6 cells

As a guide, the following entries are already answered.
O=c1[nH]cc(F)c(=O)[nH]1 [FLUOROURACIL]: 18.6 µM
CC(C)n1c(=O)n(C)c2cnc3cc(F)c(-c4ccc(OCCCN5CCCCC5)nc4)cc3c21 [AZD-1390]: > 20 µM
CN1C(=O)/C(=C2/C(=O)Nc3ccccc32)c2ccccc21 [MEISOINDIGO]: 12 µM
Cc1ncsc1-c1ccc(CNC(=O)[C@@H]2C[C@@H](O)CN2C(=O)[C@@H](NC(=O)OC(C)(C)C)C(C)(C)C)cc1: > 20 µM
O=C1CCC(N2Cc3c(NCCCCCCn4cc(CCCN5C(=O)/C(=C6/C(=O)Nc7ccccc76)c6ccccc65)nn4)cccc3C2=O)C(=O)N1 (stereo unspecified): > 20 µM

Req: Consider the compound shown here: Cc1ncsc1-c1ccc(CNC(=O)[C@@H]2C[C@@H](O)CN2C(=O)[C@@H](NC(=O)CCCCCn2cc(CCCN3C(=O)/C(=C4/C(=O)Nc5ccccc54)c4ccccc43)nn2)C(C)(C)C)cc1 What is its recorded IC50 at 48 h?
Resp: 23.9 µM

---

Entries and their IC50
- Tested on: A2780
- test_summary: Cytotoxicity against human A2780 cells assessed as reduction in cell viability incubated for 48 hrs by MTT assay
- assay_context: A2780, 48 h
Could you give me the number in µM? Just the number is fine.

O=c1[nH]cc(F)c(=O)[nH]1: 12.9
O=C1CCC(N2Cc3c(NCCCCCCn4cc(CCCN5C(=O)/C(=C6/C(=O)Nc7ccccc76)c6ccccc65)nn4)cccc3C2=O)C(=O)N1 (stereo not drawn): 7.47

Req: Consider the compound shown here: CN1C(=O)/C(=C2/C(=O)Nc3ccccc32)c2ccccc21 What is its recorded IC50?
Resp: 6.57

---

- Tested on: COLO 205
- test_summary: Cytotoxicity against human COLO 205 cells assessed as reduction in cell viability incubated for 48 hrs by MTT assay
- assay_context: COLO 205, 48 h
Entries and their pIC50
Friendly reminder that pIC50 comes from taking -log10 of the concentration in mol/L.

As a guide, the following entries are already answered.
Cc1ncsc1-c1ccc(CNC(=O)[C@@H]2C[C@@H](O)CN2C(=O)[C@@H](NC(=O)CCCCCn2cc(CCCN3C(=O)/C(=C4/C(=O)Nc5ccccc54)c4ccccc43)nn2)C(C)(C)C)cc1: 5.29
CN1C(=O)/C(=C2/C(=O)Nc3ccccc32)c2ccccc21: 5.12

Req: Consider the compound shown here: O=c1[nH]cc(F)c(=O)[nH]1 What is its recorded pIC50?
Resp: 5.34

---

- Tested on: HCT-116
- test_summary: Cytotoxicity against human HCT-116 cells assessed as reduction in cell viability incubated for 48 hrs by MTT assay
- assay_context: HCT-116, 48 h
Entries and their pIC50
Friendly reminder that pIC50 comes from taking -log10 of the concentration in mol/L.

CN1C(=O)/C(=C2/C(=O)Nc3ccccc32)c2ccccc21 [MEISOINDIGO]: 5.27

Please look at the following compound next.
Req: Consider the compound shown here: Cc1ncsc1-c1ccc(CNC(=O)[C@@H]2C[C@@H](O)CN2C(=O)[C@@H](NC(=O)CCCCCn2cc(CCCN3C(=O)/C(=C4/C(=O)Nc5ccccc54)c4ccccc43)nn2)C(C)(C)C)cc1 What is its recorded pIC50?
Resp: 5.24

---

- Test system: A2780
- test_summary: Cytotoxicity against human A2780 cells assessed as reduction in cell viability incubated for 48 hrs by MTT assay
- assay_context: A2780, 48 h
property_label: IC50

Cc1ncsc1-c1ccc(CNC(=O)[C@@H]2C[C@@H](O)CN2C(=O)[C@@H](NC(=O)OC(C)(C)C)C(C)(C)C)cc1: > 20 µM
CC(C)n1c(=O)n(C)c2cnc3cc(F)c(-c4ccc(OCCCN5CCCCC5)nc4)cc3c21: > 20 µM

Req: What IC50 appears in the records for this molecule with A2780? Cc1ncsc1-c1ccc(CNC(=O)[C@@H]2C[C@@H](O)CN2C(=O)[C@@H](NC(=O)CCCCCn2cc(CCCN3C(=O)/C(=C4/C(=O)Nc5ccccc54)c4ccccc43)nn2)C(C)(C)C)cc1
Resp: 3.96 µM

---

Entries and their pIC50
- Tested on: COLO 205
- test_summary: Cytotoxicity against human COLO 205 cells assessed as reduction in cell viability incubated for 48 hrs by MTT assay
- assay_context: COLO 205, 48 h
pIC50: −log10 of the molar value.

As a guide, the following entries are already answered.
O=C1CCC(N2Cc3c(NCCCCCCn4cc(CCCN5C(=O)/C(=C6/C(=O)Nc7ccccc76)c6ccccc65)nn4)cccc3C2=O)C(=O)N1 (stereo not drawn): < 4.70
CC(C)n1c(=O)n(C)c2cnc3cc(F)c(-c4ccc(OCCCN5CCCCC5)nc4)cc3c21 [AZD-1390]: < 4.70

Please look at the following compound next.
Req: Consider the compound shown here: Cc1ncsc1-c1ccc(CNC(=O)[C@@H]2C[C@@H](O)CN2C(=O)[C@@H](NC(=O)OC(C)(C)C)C(C)(C)C)cc1 What is its recorded pIC50?
Resp: < 4.70

---

- Test system: HCT-116
- test_summary: Cytotoxicity against human HCT-116 cells assessed as reduction in cell viability incubated for 48 hrs by MTT assay
- assay_context: HCT-116, 48 h
Entries and their IC50

As a guide, the following entries are already answered.
O=C1CCC(N2Cc3c(NCCCCCCn4cc(CCCN5C(=O)/C(=C6/C(=O)Nc7ccccc76)c6ccccc65)nn4)cccc3C2=O)C(=O)N1 (stereo not drawn): > 20 µM
Cc1ncsc1-c1ccc(CNC(=O)[C@@H]2C[C@@H](O)CN2C(=O)[C@@H](NC(=O)OC(C)(C)C)C(C)(C)C)cc1: > 20 µM

Req: Consider the compound shown here: CC(C)n1c(=O)n(C)c2cnc3cc(F)c(-c4ccc(OCCCN5CCCCC5)nc4)cc3c21 [AZD-1390] What is its recorded IC50?
Resp: > 20 µM
